Target: type 2 human 5α-reductase (Homo sapiens)
Sequence (P31213 whole entry): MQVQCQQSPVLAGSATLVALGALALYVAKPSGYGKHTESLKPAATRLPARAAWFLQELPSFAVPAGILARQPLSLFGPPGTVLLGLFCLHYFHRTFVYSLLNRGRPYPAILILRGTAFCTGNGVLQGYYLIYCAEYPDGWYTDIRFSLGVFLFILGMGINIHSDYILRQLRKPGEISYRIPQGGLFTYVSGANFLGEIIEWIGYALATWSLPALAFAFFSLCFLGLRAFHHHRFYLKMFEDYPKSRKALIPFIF
Test: Cell-free enzymatic assay of 5α-reductase (testosterone to DHT), type 2
Format: biochemical
Set-up: expressed in transfected cells; host or cells: rat 1A cells infected with pMV7 retrovirus and selected with G418; microsomes for the cell-free assay
Conditions: read-out: percent inhibition of 5α-reductase activity, cell-free assay, Type 2, 100 μM compound
Each item that follows carries a reported inhibition at 100 µM.
quantity_kind: inhibition at 100 µM (%)

compound: O=c1c(O)cccc2cc(O)c(O)c(O)c12 [Purpurogallin]
measured_number: 31

compound: O=c1c(O)c(-c2ccc(O)cc2O)oc2cc(O)cc(O)c12 [Morin]
measured_number: 33

compound: CC(Cc1ccc(O)c(O)c1)C(C)Cc1ccc(O)c(O)c1 (stereo not drawn) [Nordihydroguaiaretic acid]
measured_number: 80

compound: O=c1cc(-c2ccccc2)oc2cc(O)cc(O)c12 [Chrysin]
measured_number: 1

compound: O=c1ccc2cc(O)c(O)cc2o1 [Esculetin, 6,7-dihydroxycoumarin]
measured_number: 13

compound: CC/C=C\C/C=C\C/C=C\CCCCCCCC(=O)O [Alpha-Linolenic Acid, Alpha-Linolenic Acid C18:3 CIS 9,12,15]
measured_number: 84

compound: CCCCC/C=C\C/C=C\CCCCCCCC(=O)O [Linoleic Acid, Linoleic Acid C18:2 CIS 9,12]
measured_number: 85

compound: O=c1ccc2c(-c3ccccc3S(=O)(=O)O)c3ccc(O)c(O)c3oc-2c1O [Pyrogallol red, pryrogallolsulfonephthalein]
measured_number: 27

compound: COc1cc(/C=C/CO)ccc1O [Coniferol, coniferyl alcohol]
measured_number: 49

---

Target: type 2 human 5α-reductase (Homo sapiens)
Assay: Whole-cell assay of 5α-reductase, type 2
Type: cell-based
Parameters: expressed in transfected cells; host or cells: rat 1A cells infected with pMV7 retrovirus and selected with G418; intact cells for the whole-cell assay
Conditions: read-out: percent inhibition of 5α-reductase activity, whole-cell assay, Type 2; 100 μM compound
Each item that follows carries a reported inhibition at 100 µM.
quantity_kind: inhibition at 100 µM (%)

compound: CCCCC/C=C\C/C=C\CCCCCCCC(=O)O [Linoleic Acid, Linoleic Acid C18:2 CIS 9,12]
measurement_target: type 2 human 5α-reductase (Homo sapiens)
quantity_kind: inhibition at 100 µM
measured_number: 77
//
compound: O=C(/C=C/c1ccc(O)c(O)c1)OCCc1ccccc1
measurement_target: type 2 human 5α-reductase (Homo sapiens)
quantity_kind: inhibition at 100 µM
measured_number: 98
//
compound: Oc1cccc(O)c1O [Pyrogallol, 1,2,3-trihydroxybenzene]
measurement_target: type 2 human 5α-reductase (Homo sapiens)
quantity_kind: inhibition at 100 µM
measured_number: 15
//
compound: CC/C=C\C/C=C\C/C=C\CCCCCCCC(=O)O [Alpha-Linolenic Acid, Alpha-Linolenic Acid C18:3 CIS 9,12,15]
measurement_target: type 2 human 5α-reductase (Homo sapiens)
quantity_kind: inhibition at 100 µM
measured_number: 86

---

Biological target: UniProt:P31213
Experiment: Cell-free enzymatic assay of 5α-reductase (testosterone to DHT), type 2
Format: biochemical
Set-up: expressed in transfected cells; host or cells: rat 1A cells infected with pMV7 retrovirus and selected with G418; microsomes for the cell-free assay

compound: O=C(O[C@@H]1Cc2c(O)cc(O)cc2O[C@@H]1c1ccc(O)c(O)c1)c1cc(O)c(O)c(O)c1 [ECG, epicatechin gallate]
measurement_target: UniProt:P31213
IC50 [µM]: 69

---

Biological target: type 1 human 5α-reductase (Homo sapiens)
Sequence (P18405 whole entry): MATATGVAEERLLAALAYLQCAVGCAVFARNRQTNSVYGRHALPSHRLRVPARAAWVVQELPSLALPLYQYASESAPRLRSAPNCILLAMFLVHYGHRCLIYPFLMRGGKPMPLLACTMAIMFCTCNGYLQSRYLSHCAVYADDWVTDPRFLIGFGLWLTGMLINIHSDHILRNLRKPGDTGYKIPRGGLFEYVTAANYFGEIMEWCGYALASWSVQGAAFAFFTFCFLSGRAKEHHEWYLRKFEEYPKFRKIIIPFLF
Experiment: Cell-free enzymatic assay of 5α-reductase (testosterone to DHT), type 1
Details: read-out: percent inhibition of 5α-reductase activity, cell-free assay, Type 1, 100 μM compound
Each item that follows carries a reported inhibition at 100 µM.
quantity_kind: inhibition at 100 µM (%)

molecule: CC/C=C\C/C=C\C/C=C\CCCCCCCC(=O)O [Alpha-Linolenic Acid, Alpha-Linolenic Acid C18:3 CIS 9,12,15]
uom: %
measured_number: 99
--
molecule: O=c1c(O)c(-c2ccc(O)cc2O)oc2cc(O)cc(O)c12
uom: %
measured_number: 6
--
molecule: O=c1cc(-c2ccccc2)oc2cc(O)cc(O)c12
uom: %
measured_number: 2
--
molecule: C[C@@H]1O[C@@H](OC[C@H]2O[C@@H](Oc3c(-c4ccc(O)c(O)c4)oc4cc(O)cc(O)c4c3=O)[C@H](O)[C@@H](O)[C@@H]2O)[C@H](O)[C@H](O)[C@H]1O
uom: %
measured_number: 4
--
molecule: O=c1ccc2c(-c3ccccc3S(=O)(=O)O)c3ccc(O)c(O)c3oc-2c1O
uom: %
measured_number: 97
--
molecule: CCCCC/C=C\C/C=C\CCCCCCCC(=O)O [Linoleic Acid, Linoleic Acid C18:2 CIS 9,12]
uom: %
measured_number: 99
--
molecule: COc1cc2ccc(=O)oc2c(O)c1O [Fraxetin, 7,8-dihydroxy-6-methoxycoumarin]
uom: %
measured_number: 2
--
molecule: O=C1c2ccccc2C(=O)c2c(O)c(O)cc(O)c21
uom: %
measured_number: 95
